Origin of values: ChEMBL document CHEMBL6182912

biological target: UniProt P19357; test: Modulation of GLUT4 translocation in rat L6-GLUT4myc skeletal muscle cells assessed as increase in surface GLUT4myc level by measuring fold stimulation at 10 uM measured after 16 hrs by O-phenylenediamine assay relative to control; type: cell-based; settings: filed as modulator
Sequence (P19357 whole entry): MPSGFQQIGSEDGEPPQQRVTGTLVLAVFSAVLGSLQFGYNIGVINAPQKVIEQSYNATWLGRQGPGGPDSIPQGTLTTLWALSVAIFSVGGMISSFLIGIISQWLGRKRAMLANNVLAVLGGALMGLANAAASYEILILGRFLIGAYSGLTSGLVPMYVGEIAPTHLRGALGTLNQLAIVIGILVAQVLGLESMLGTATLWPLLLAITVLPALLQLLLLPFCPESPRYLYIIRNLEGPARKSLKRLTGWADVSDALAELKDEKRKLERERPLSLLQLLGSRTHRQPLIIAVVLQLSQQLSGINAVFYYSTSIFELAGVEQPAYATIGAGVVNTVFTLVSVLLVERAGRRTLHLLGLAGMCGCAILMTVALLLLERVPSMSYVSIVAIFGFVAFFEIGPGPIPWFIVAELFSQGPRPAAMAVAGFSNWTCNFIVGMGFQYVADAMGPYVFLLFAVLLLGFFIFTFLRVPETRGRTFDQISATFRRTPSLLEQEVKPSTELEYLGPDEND
Could you please report measured fold change (FC) for the items listed next?

Reading of fold change (FC) for COc1ccc(-n2cc(COC(=O)c3cc(Cc4n[nH]c(=O)c5ccccc45)ccc3F)nn2)cc1 with UniProt P19357: 1.31

Reading of fold change (FC) for O=C(OCc1cn(-c2ccc(F)cc2)nn1)c1cc(Cc2n[nH]c(=O)c3ccccc23)ccc1F with UniProt P19357: 1.03

Reading of fold change (FC) for COc1ccc(-n2cc(CNC(=O)c3ccc(Cc4n[nH]c(=O)c5ccccc45)cc3)nn2)cc1 with UniProt P19357: 1.12
